Hey, just so you know, these numbers are from the supplement of paper PMC5998384.

tested on: HeLa Kyoto; test: thermal stability score vs G1/S (z-score of summed log2 fold changes over temperatures); higher = more thermally stable than in G1/S; settings: cell cycle stage: early G1 (4.5 h after nocodazole release);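 also: synchronized HeLa Kyoto cells, proteins quantified by TMT10plex mass spectrometry, three biological replicates, mitosis taken 0.5 h after nocodazole release, G1/S directly after double thymidine block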
Measured thermal stability score, listed per entry for reference.
reported metric: thermal stability score

1. MESYDIIANQPVVIDNGSGVIKAGFAGDQIPKYCFPNYVGRPKHMRVMAGALEGDLFIGPKAEEHRGLLTIRYPMEHGVVRDWNDMERIWQYVYSKDQLQTFSEEHPVLLTEAPLNPSKNREKAAEVFFETFNVPALFISMQAVLSLYATGRTTGVVLDSGDGVTHAVPIYEGFAMPHSIMRVDIAGRDVSRYLRLLLRKEGVDFHTSAEFEVVRTIKERACYLSINPQKDEALETEKVQYTLPDGSTLDVGPARFRAPELLFQPDLVGDESEGLHEVVAFAIHKSDMDLRRTLFANIVLSGGSTLFKGFGDRLLSEVKKLAPKDIKIKISAPQERLYSTWIGGSILASLDTFKKMWVSKKEYEEDGSRAIHRKTF [ACTR1B] :: -0.612
2. MNTVLSRANSLFAFSLSVMAALTFGCFITTAFKDRSVPVRLHVSRIMLKNVEDFTGPRERSDLGFITFDITADLENIFDWNVKQLFLYLSAEYSTKNNALNQVVLWDKIVLRGDNPKLLLKDMKTKYFFFDDGNGLKGNRNVTLTLSWNVVPNAGILPLVTGSGHVSVPFPDTYEITKSY [SPCS3] :: 0.503
3. MSALEWYAHKSLGDGIFWIQERFYESGNRANIWLVRGSEQDVVIDTGLGLRSLPEYLYSSGLLQDREAKEDAARRPLLAVATHVHFDHSGGLYQFDRVAVHHAEAEALARGDNFETVTWLSDSEVVRTPSPGWRARQFRVQAVQPTLILQDGDVINLGDRQLTVMHMPGHSRGSICLHDKDRKILFSGDVVYDGSLIDWLPYSRISDYVGTCERLIELVDRGLVEKVLPGHFNTFGAERLFRLASNYISKAGICHKVSTFAMRSLASLALRVTNSRTSP [MBLAC2] :: -1.94
